target.under.test: GalNAc(b1-3)Gal(a1-6)Gal(b1-4)Glc
experiment: glycan array binding signal (z-score within array); higher = stronger binding
applied.conditions: glycan notation: IUPAC condensed, linker removed
The entries come from a sample that favours the strongest signals as a whole.
measurement.label: glycan array binding signal (z-score)
Please give only the number in your answer, with no unit.

For the binder Epa3to2 (Candida glabrata) (protein) MGSSHHHHHHSSGLVPRGSHMKRELSSQNPFGYPIGCSPQDVAIIPGLTMELYSYPIVSGTPPNCYDASYVDPEYPRTGYLKRKMVGKSTGVTGNLNYKYSVEKACMVKYGNLPAGYNYNEPLTVSNFTMILYGYFKAQTTGLHTFFVNADDLLYINFGAGNAFDCCKREDSKTKLGEYVAYDIWHVDSSKNKVSLFLEKDLYYPIRMFFNNRDNNSSLDLSFSVNGATDQISDFSGYLYSVPDQPDTCPAHIGYDTTCR , what glycan array binding signal (z-score) is on record? 1.12
